Every entry's value here was drawn from ChEMBL document CHEMBL1147927.

Test: Metabolic stability in human liver microsomes
Format: ADME, Microsome
Note to self: use fulfilled only for CLhep predicted readings below 5 mL/min/kg; a reading exactly at 5 mL/min/kg still gets not fulfilled.

Challenge: Just wondering, is CLhep predicted of C[C@@H]1CN(Cc2ccc(F)cc2)[C@@H](C)CN1C(=O)COc1ccc(Cl)cc1CC(=O)O below 5 mL/min/kg?
Response given: fulfilled

Challenge: Here's an entry: C[C@@H]1CN(Cc2ccc(F)cc2)CCN1C(=O)COc1ccc(Cl)cc1NC(N)=O [BX 471 FREE BASE] . Is its CLhep predicted below 5 mL/min/kg?
Response given: not fulfilled

Challenge: Threshold test, CLhep predicted < 5 mL/min/kg: C[C@@H]1CN(Cc2ccc(F)cc2)[C@@H](C)CN1C(=O)COc1ccc(Cl)cc1C(=O)O
Response given: fulfilled

Challenge: Check if CLhep predicted falls below 5 mL/min/kg for C[C@@H]1CN(Cc2ccc(F)cc2)[C@@H](C)CN1C(=O)COc1ccc(Cl)cc1C(=O)CCC(=O)O .
Response given: fulfilled

Challenge: Take the compound C[C@@H]1CN(Cc2ccc(F)cc2)[C@@H](C)CN1C(=O)COc1ccc(Cl)cc1C(=O)NCCN and say whether its CLhep predicted is less than 5 mL/min/kg.
Response given: not fulfilled

Challenge: Take the compound C[C@@H]1CN(Cc2ccc(F)cc2)[C@@H](C)CN1C(=O)COc1ccc(Cl)cc1CS(=O)(=O)O and say whether its CLhep predicted is less than 5 mL/min/kg.
Response given: fulfilled

Challenge: Identify whether the compound C[C@@H]1CN(Cc2ccc(F)cc2)CCN1C(=O)COc1ccc(Cl)cc1 records CLhep predicted below 5 mL/min/kg.
Response given: not fulfilled
